measurement-description: Cytotoxic Profiling in HEK 293 Cell Line of Diverse Libraries Using Quantitative High-Throughput Screening; also: nearly all actives have a fitted effect of over 60% in size
condition-parameters: HEK 293 viability, ATP luminescence (CellTiter-Glo), 48-72 h; series mostly up to 115 µM
Screen size: about 94,000 compounds; about 6,200 (6.6%) were called active. Roughly 31% stayed inconclusive and do not appear here. Calls follow the shape of the dose curve; as a rule, active = well fitted inhibition curve with a large enough effect; inconclusive = small, poorly fitted or top-dose-only effect; inactive = flat fitted curve, though single readings scatter. The list comes from a sample in which actives are over-represented; it also holds close analogues and randomly drawn compounds.
Labels: YES for active, NO for inactive

{"compound": "COc1ccc(C(=O)N2CCCC2C(=O)N2CCCC2c2nc3ccncc3[nH]2)cc1 (stereo not given)", "class": "NO"}
{"compound": "O=C(c1cn2cc(-c3cccnc3)sc2n1)N1CCCCC1", "class": "NO"}
{"compound": "O=C(NC1CCCCC1)C1CN(C(=O)c2ccccc2F)CC12CCOCC2 (stereo not given)", "class": "NO"}
{"compound": "O=C(NCc1ccccc1Cl)c1cn2cc(-c3ccc(C(F)(F)F)cc3)sc2n1", "class": "NO"}
{"compound": "O=C(NCc1cccnc1)c1cn2cc(-c3cccc(C(F)(F)F)c3)sc2n1", "class": "YES"}

* * *

measurement-description: Cytotoxic Profiling in HEK 293 Cell Line of Diverse Libraries Using Quantitative High-Throughput Screening; also: nearly all actives have a fitted effect of over 60% in size
condition-parameters: HEK 293 viability, ATP luminescence (CellTiter-Glo), 48-72 h; series mostly up to 115 µM
About 6,200 (6.6%) of roughly 94,000 compounds were called active. Not shown: some 31% with an inconclusive outcome. The call rests on the fitted dose curve; in most records, active means well fitted inhibition curve with a large enough effect; inconclusive means small, poorly fitted or top-dose-only effect; inactive means flat fitted curve, though single readings scatter. The sample as a whole holds a higher share of actives than the screen did.
Labels: 1 (yes) (active), 0 (no) (inactive)

{"compound": "CCS(=O)(=O)N1CC(F)(F)C[C@H]1c1nc(C2CC2)no1", "class": "0 (no)"}
{"compound": "Cc1ccc(NC(=O)c2nnn3c2COC(c2ccc(F)cc2)C3)c(Br)c1 (stereo not given)", "class": "0 (no)"}
{"compound": "O=C1CN(Cc2ccc(-c3ccccc3)cc2)CCN1c1cc(Cl)ncn1", "class": "1 (yes)"}
{"compound": "COc1ccc2[nH]cc(CCNC(=O)C3CCCN(Cc4ccncc4)CCC(=O)NCC3)c2c1 (stereo not given)", "class": "0 (no)"}
{"compound": "COCc1cc(CN2C[C@H](NC(=O)CO)[C@@H](C3CC3)C2)ccc1OC", "class": "0 (no)"}
{"compound": "COC[C@H]1CCCN1Cc1nc(C2(O)CCN(CC3CCCCC3)CC2)cs1", "class": "0 (no)"}
{"compound": "CC(Cn1cncn1)Nc1nc(-c2ccncc2)nc2c1cnn2C (stereo not given)", "class": "0 (no)"}
{"compound": "O=C(c1ccncc1)N1CCN(c2ccc(Cl)nn2)C(=O)C1", "class": "0 (no)"}
{"compound": "CCCc1nc(NCC(c2ccccn2)N2CCOCC2)c2cnn(C)c2n1 (stereo not given)", "class": "0 (no)"}
{"compound": "CN(C)c1ccc(C(=O)N[C@H]2C[C@H]3C(=O)NC[C@@H](CCC(=O)N4CCc5ccccc54)N3C2)cc1", "class": "0 (no)"}

* * *

measurement-description: Cytotoxic Profiling in HEK 293 Cell Line of Diverse Libraries Using Quantitative High-Throughput Screening; also: nearly all actives have a fitted effect of over 60% in size
condition-parameters: HEK 293 viability, ATP luminescence (CellTiter-Glo), 48-72 h; series mostly up to 115 µM
Out of some 94,000 compounds screened, about 6,200 (6.6%) were called active. Inconclusive results (about 31%) are left out. Calls follow the shape of the dose curve; as a rule, active = well fitted inhibition curve with a large enough effect; inconclusive = small, poorly fitted or top-dose-only effect; inactive = flat fitted curve, though single readings scatter. The entries come from a sample that favours actives as a whole.
Labels: active, inactive

{"compound": "COc1ccc(C(=O)NCCC2CCN(C(=O)Nc3cc(F)ccc3F)CC2)cc1", "class": "inactive"}
{"compound": "COc1ccc(-c2cc(N3CCCC(NC(=O)c4cccc(Cl)c4)C3)n[nH]2)cc1 (configuration not stated)", "class": "active"}
{"compound": "O=C1OCCN1C1CCN(S(=O)(=O)c2ccccc2)CC1", "class": "inactive"}
{"compound": "O=C(NCC1CC1)c1cn(C2CN(C(=O)NCCc3ccccc3)C2)nn1", "class": "inactive"}
{"compound": "O=C(NCCN[S+](=O)([O-])c1cccs1)c1ccc(-c2cccc(C(F)(F)F)c2)cc1", "class": "active"}
{"compound": "COc1ccc(-c2cc(N3CCC(NC(=O)c4ccc(N(C)C)cc4)C3)n[nH]2)cc1 (configuration not stated)", "class": "active"}
{"compound": "COC[C@@H]1CN(Cc2c(C)n[nH]c2C)C[C@H]1c1nc(C)no1", "class": "inactive"}
{"compound": "O=C(Cc1cccn1-c1ccccc1)N1CCOCC1", "class": "inactive"}
{"compound": "COc1ccc(CN2CCC3(CC2)CC(=O)c2ccc(Cl)cc2O3)cc1", "class": "active"}
{"compound": "CC(C)N1C[C@H](O)C[C@H]1c1nnc2n1CCN(C(=O)c1ccccn1)CC2", "class": "inactive"}
{"compound": "Cc1ccccc1C(=O)N1CCN(C(=O)c2nc3cccnc3n(C3CC3)c2=O)CC1", "class": "inactive"}
{"compound": "COc1ccc(-n2c(=O)c(C(=O)NCC3CC3)nc3cccnc32)cc1", "class": "inactive"}
{"compound": "Cc1ccc(C(=O)NC2CCN(c3cc(-c4cccs4)[nH]n3)C2)cc1 (configuration not stated)", "class": "inactive"}
{"compound": "CN1C(=O)c2cccn2CC1C(=O)Nc1ccc(F)cc1F (configuration not stated)", "class": "inactive"}
{"compound": "Cc1cc2cccc(-c3nc(C4CCOC4)nn3CC(=O)O)c2o1 (configuration not stated)", "class": "inactive"}
{"compound": "OC1(CN2CCC(CCn3cccn3)CC2)CNCCOC1 (configuration not stated)", "class": "inactive"}
{"compound": "COC1CCC(C(=O)N2CCC3(CC2)OC(=O)N(Cc2ccccc2)C3(C)c2ccccc2)CC1 (configuration not stated)", "class": "inactive"}
{"compound": "COc1ccc(CN2CCC3(CC(C(C)C)=NO3)C2)cc1 (configuration not stated)", "class": "inactive"}
{"compound": "CC(=O)NC1CN(c2ccnc3ccnn23)C1", "class": "inactive"}
{"compound": "O=C1c2c(nc(COc3ccccc3)n2Cc2ccccc2)NCCN1Cc1cccc(Cl)c1", "class": "active"}
{"compound": "CC(C)(C)c1ccnc(N[C@H]2CO[C@H]3[C@@H]2OC[C@H]3OC(=O)Nc2cccc(C(F)(F)F)c2)n1", "class": "active"}
{"compound": "CC(=O)c1ccc(NC(=O)O[C@@H]2CO[C@H]3[C@@H]2OC[C@@H]3Nc2nccc(-c3ccco3)n2)cc1", "class": "active"}
{"compound": "CC1=NS(=O)(=O)N(Cc2ccc(Cl)cc2)C=C1C(=O)O", "class": "inactive"}
{"compound": "O=C(c1ccc(Cl)cc1Cl)N1CCC(c2nnc3n2C(C(=O)N2CCN(c4ncccn4)CC2)CC3)CC1 (configuration not stated)", "class": "inactive"}
{"compound": "COC(=O)NC1CCCN(c2ccc3nnc(C)n3n2)C1 (configuration not stated)", "class": "inactive"}
{"compound": "Cc1noc(C)c1[S+](=O)([O-])N1CCCC(C(=O)N2CCC(c3ccccc3)CC2)C1 (configuration not stated)", "class": "active"}
{"compound": "Cc1ccc(N2Cc3c(NCC4CC4)ncnc3N(C)CC2=O)cc1", "class": "inactive"}
{"compound": "O=C(c1ccc2c(c1)OCO2)N1CCN(c2ccc(Cl)nn2)C(=O)C1", "class": "inactive"}
{"compound": "Cn1nccc1C(=O)NC1CCCN(c2cc(N3CCCC3)ncn2)C1 (configuration not stated)", "class": "inactive"}
{"compound": "Cc1ncsc1C(=O)N1CCC2(CC1)OC(=O)N(Cc1ncccn1)C2(C)c1ccccc1 (configuration not stated)", "class": "inactive"}
{"compound": "COCCn1c(=O)n([C@H]2CCCN(C(=O)c3ccccc3F)C2)c2ncccc21", "class": "inactive"}
{"compound": "O=C1NCCCCCCN(C(=O)Cc2cccnc2)[C@@H]2C[C@@H](c3nc(-c4cnccn4)no3)C[C@H]12", "class": "inactive"}
{"compound": "COc1ccc(C(=O)N2CCC(n3cc(-c4nc(C)no4)nn3)CC2)c(OC)c1", "class": "inactive"}
{"compound": "C=CCNC(=O)N[C@H]1CO[C@H]2[C@@H]1OC[C@H]2OC(=O)Nc1cccc(C(C)=O)c1", "class": "inactive"}
{"compound": "COc1ccc(-c2cc(N3CCCC(NC(=O)c4ccsc4)C3)n[nH]2)cc1 (configuration not stated)", "class": "active"}
{"compound": "CN1CCCN(c2ccc(C(=O)N3CCC(N4CCOCC4)CC3)cn2)CC1", "class": "inactive"}
{"compound": "Cc1ccccc1CN1CCC(N2CCCC(C(=O)NC3CC3)C2)CC1 (configuration not stated)", "class": "inactive"}
{"compound": "CC(C)(C)C(=O)Nc1cc(C2CC2)nn1-c1ccccc1", "class": "inactive"}
{"compound": "Cc1cnc(C(=O)NC2CC(c3nnc(CO)n3C3CC3)C2)[nH]1 (configuration not stated)", "class": "inactive"}
{"compound": "O=C(NC1CCN(c2cc(C(F)(F)F)ncn2)CC1)c1ccc(F)cc1", "class": "inactive"}
{"compound": "O=C1c2cnc(-c3ccc(O)c(F)c3)nc2OCCN1Cc1ccccc1", "class": "inactive"}
{"compound": "Cc1ccc2c(n1)N(C)[C@H](CO)CCN(Cc1ccccc1C)C2", "class": "active"}
